assaySystem: YU2 gp120, soluble monomer (HIV-1 isolate YU2 (clade B), UniProt P35961 32-498)
experimentNotes: BLI
The entries below come with measured pKd values attached.
Conceptually, pKd converts a concentration in mol/L into minus its log10.

[Q] Entry GEBT403, inferred germline (igL) reverted IgG (antibody, V domains shown) VH: QVQLVQSGAEVKKPGSSVKVSCKASGYTFTDYYMHWVRQAPGQGLEWMGEINPKTGGTNYAQKFQGRVTMTRDTSTSTAYMELSSLRSEDTAVYYCARGGQRLIPLRRFYFYYWGQGVLVTVSS VL: QSVLTQPPSVSGAPGQKVTISCTGSSSNIGGYDVHWYQQLPGMAPKLLIYDNNERPSGISDRFSGSKSATSASLAITGLQTEDEADYYCQSYDSSMNAWVFGGGTRLTVL : reported pKd = ?
[A] 7.96

Could you now consider this next binder?
[Q] Which pKd value is on record for GEBT391, mature IgG (antibody, V domains shown) VH: QVQLVESGGGLVQPGGSLRLSCAASGFTFSSYGMHWVRQAPGKGLEWVAVIWFDGSEKYYVDSVKDRFTISRDNSKNMLYLQMNNLKLDDTAVYYCARRGCTGSGCYLYYYALDSWGQGVVVTVSS VL: DIQMTQSPSSLSASVGDTVTITCRASQGISSYLNWFQQKPGKAPKLLIYAATTLQSGVPSRFSGSGSGTDFTLTISSLQPEDFATYYCLQHNFYPYSFGQGTKVEIK ?
[A] 8.22

These measurements were taken from paper PMC4754655.
